Quick reference: MIC of the listed items.
System: Staphylococcus epidermidis
TEST METHOD NOTES: Antibacterial activity against penicillin-resistant Staphylococcus epidermidis clinical isolate by broth microdilution method
Assay type: functional
# output: bare number, implied unit µg/mL

>  <STRUCTURE AS SMILES>
CCCCCCNC(=O)O[C@H]1[C@H](C)[C@@H](O[C@@H]2O[C@H](C)C[C@H](N(C)C)[C@H]2OC(C)=O)[C@](C)(O)C[C@@H](C)CN(C)[C@H](C)[C@H]2OC(=O)O[C@]2(C)[C@@H](CC)OC(=O)[C@@H]1C

>  <MIC / µg/mL>
16

$$$$

Read the next record carefully.
*Q* Please give the measured MIC for this compound: CC[C@H]1OC(=O)[C@H](C)[C@@H](OC(=O)Nc2cccc(C)c2)[C@H](C)[C@@H](O[C@@H]2O[C@H](C)C[C@H](N(C)C)[C@H]2O)[C@](C)(O)C[C@@H](C)CN(C)[C@H](C)[C@@H](OC(=O)NCc2ccccc2Cl)[C@]1(C)O
*A* 0.25

----------
Test system: Streptococcus pneumoniae
TEST METHOD NOTES: Antibacterial activity against erythromycin-resistant Streptococcus pneumoniae B1 expressing ermB gene by broth microdilution method
Format: functional
QUANTITY KIND: MIC (µg/mL)
# output: bare number, implied unit µg/mL

>  <STRUCTURE AS SMILES>
CC[C@H]1OC(=O)[C@H](C)[C@@H](OC(=O)Nc2ccccc2F)[C@H](C)[C@@H](O[C@@H]2O[C@H](C)C[C@H](N(C)C)[C@H]2O)[C@](C)(O)C[C@@H](C)CN(C)[C@H](C)[C@H]2OC(=O)O[C@@]21C

>  <UNIT>
µg/mL

>  <MIC>
64

$$$$

*Q* Write down the reported MIC of CC[C@H]1OC(=O)[C@H](C)[C@@H](OC(=O)Nc2cccc(C)c2)[C@H](C)[C@@H](O[C@@H]2O[C@H](C)C[C@H](N(C)C)[C@H]2O)[C@](C)(O)C[C@@H](C)CN(C)[C@H](C)[C@@H](OC(=O)NCc2ccc(OC)cc2)[C@]1(C)O , test system: Streptococcus pneumoniae.
*A* 128

*Q* Cool, now CC[C@H]1OC(=O)[C@H](C)[C@@H](OC(=O)Nc2cccc(OC)c2)[C@H](C)[C@@H](O[C@@H]2O[C@H](C)C[C@H](N(C)C)[C@H]2OC(C)=O)[C@](C)(O)C[C@@H](C)CN(C)[C@H](C)[C@H]2OC(=O)O[C@@]21C
*A* 128

*Q* Cool, now CC[C@H]1OC(=O)[C@H](C)[C@@H](O)[C@H](C)[C@@H](O[C@@H]2O[C@H](C)C[C@H](N(C)C)[C@H]2OC(=O)n2ccnc2)[C@](C)(O)C[C@@H](C)CN(C)[C@H](C)[C@H]2OC(=O)O[C@@]21C
*A* 256

----------
Test system: Staphylococcus epidermidis
TEST METHOD NOTES: Antibacterial activity against penicillin-resistant Staphylococcus epidermidis clinical isolate by broth microdilution method
Type: functional
Quick reference: MIC of the listed items.
# output: bare number, implied unit µg/mL

Previously resolved entries follow.
>  <STRUCTURE AS SMILES>
CC[C@H]1OC(=O)[C@H](C)[C@@H](OC(=O)n2ccnc2)[C@H](C)[C@@H](O[C@@H]2O[C@H](C)C[C@H](N(C)C)[C@H]2OC(C)=O)[C@](C)(O)C[C@@H](C)CN(C)[C@H](C)[C@H]2OC(=O)O[C@@]21C

>  <UNIT>
µg/mL

>  <MIC>
128

$$$$
>  <STRUCTURE AS SMILES>
CC[C@H]1OC(=O)[C@H](C)[C@@H](OC(=O)Nc2cccc(C(F)(F)F)c2)[C@H](C)[C@@H](O[C@@H]2O[C@H](C)C[C@H](N(C)C)[C@H]2O)[C@](C)(O)C[C@@H](C)CN(C)[C@H](C)[C@H]2OC(=O)O[C@@]21C

>  <UNIT>
µg/mL

>  <MIC>
0.5

$$$$
>  <STRUCTURE AS SMILES>
CC[C@H]1OC(=O)[C@H](C)[C@@H](OC(=O)Nc2ccccc2C)[C@H](C)[C@@H](O[C@@H]2O[C@H](C)C[C@H](N(C)C)[C@H]2O)[C@](C)(O)C[C@@H](C)CN(C)[C@H](C)[C@H]2OC(=O)O[C@@]21C

>  <UNIT>
µg/mL

>  <MIC>
4

$$$$

*Q* Please give the measured MIC for this compound: CC[C@H]1OC(=O)[C@H](C)[C@@H](OC(=O)Nc2cccc(F)c2)[C@H](C)[C@@H](O[C@@H]2O[C@H](C)C[C@H](N(C)C)[C@H]2O)[C@](C)(O)C[C@@H](C)CN(C)[C@H](C)[C@H]2OC(=O)O[C@@]21C
*A* 64

*Q* Cool, now CC[C@H]1OC(=O)[C@H](C)[C@@H](OC(=O)Nc2ccccc2)[C@H](C)[C@@H](O[C@@H]2O[C@H](C)C[C@H](N(C)C)[C@H]2O)[C@](C)(O)C[C@@H](C)CN(C)[C@H](C)[C@@H](OC(=O)NCc2ccc(C)cc2)[C@]1(C)O
*A* 16

*Q* Cool, now CC[C@H]1OC(=O)[C@H](C)[C@@H](OC(=O)N(C)c2ccccc2)[C@H](C)[C@@H](O[C@@H]2O[C@H](C)C[C@H](N(C)C)[C@H]2O)[C@](C)(O)C[C@@H](C)CN(C)[C@H](C)[C@H]2OC(=O)O[C@@]21C
*A* 8

*Q* Cool, now CC[C@H]1OC(=O)[C@H](C)[C@@H](OC(=O)Nc2ccccc2)[C@H](C)[C@@H](O[C@@H]2O[C@H](C)C[C@H](N(C)C)[C@H]2OC(C)=O)[C@](C)(O)C[C@@H](C)CN(C)[C@H](C)[C@H]2OC(=O)O[C@@]21C
*A* 16

*Q* Cool, now CC[C@H]1OC(=O)[C@H](C)[C@@H](OC(=O)Nc2ccccc2Cl)[C@H](C)[C@@H](O[C@@H]2O[C@H](C)C[C@H](N(C)C)[C@H]2O)[C@](C)(O)C[C@@H](C)CN(C)[C@H](C)[C@H]2OC(=O)O[C@@]21C
*A* 64
